Reference for the values: patent US20190307843A1

# assayText: Pharmacokinetics of CD101 after single 30 mg/kg SC (vs IV) dose in monkeys
# Format: in vivo
# conditions: both sexes, cynomolgus monkey, plasma, sc; Subcutaneous 30 mg/kg
Starred links: 1 amine or outer side, 2 acyl side, 3 side chain; linkers in the order of their positions; H or OH if unused. Positions of bridges follow the written chain, without caps; N, C: chain ends. Non-standard residues stand in square brackets, D forms with d. Residues, ends and D or L forms follow the SMILES beside them. *: point of attachment. Orn(4R-OH,5R-OCH2CH2NMe3+) = C[N+](C)(C)CCO[C@@H](N[*:3])[C@H](O)C[C@H](N[*:1])C(=O)[*:2]; pTerphenylCO(4''-OnC5H11) = CCCCCOc1ccc(-c2ccc(-c3ccc(C(=O)*)cc3)cc2)cc1; hTyr(3S-OH,4S-OH) = N[C@H](C(=O)O)[C@H](O)[C@@H](O)c1ccc(O)cc1; Pro(3S-OH,4S-Me) = C[C@H]1CN[C@H](C(=O)O)[C@H]1O; Hyp = O=C(O)[C@@H]1C[C@@H](O)CN1
valueType: Cmax (ng/mL)

INSERT INTO results (compound, valuemeasured) VALUES
  ('CCCCCOc1ccc(-c2ccc(-c3ccc(C(=O)N[C@H]4C[C@@H](O)[C@@H](OCC[N+](C)(C)C)NC(=O)[C@@H]5[C@@H](O)[C@@H](C)CN5C(=O)[C@H]([C@@H](C)O)NC(=O)[C@H]([C@H](O)[C@@H](O)c5ccc(O)cc5)NC(=O)[C@@H]5C[C@@H](O)CN5C(=O)[C@H]([C@@H](C)O)NC4=O)cc3)cc2)cc1 [CD101] ({pTerphenylCO(4''''-OnC5H11)}-[Orn(4R-OH,5R-OCH2CH2NMe3+)]T[Hyp][hTyr(3S-OH,4S-OH)]T[Pro(3S-OH,4S-Me)]; lactam 1-C)', 13400);

----------
# assayText: Plasma and lung epithelial lining fluid (ELF) concentrations in ICR mice, 20 mg/kg IP
# Format: in vivo, mouse
# conditions: ICR, mouse, lung epithelial lining fluid (ELF), intraperitoneal; 20 mg/kg IP; at 72 h
Starred links: 1 amine or outer side, 2 acyl side, 3 side chain; linkers in the order of their positions; H or OH if unused. Positions of bridges follow the written chain, without caps; N, C: chain ends. Non-standard residues stand in square brackets, D forms with d. Residues, ends and D or L forms follow the SMILES beside them. *: point of attachment. Orn(4R-OH,5R-OCH2CH2NMe3+) = C[N+](C)(C)CCO[C@@H](N[*:3])[C@H](O)C[C@H](N[*:1])C(=O)[*:2]; pTerphenylCO(4''-OnC5H11) = CCCCCOc1ccc(-c2ccc(-c3ccc(C(=O)*)cc3)cc2)cc1; hTyr(3S-OH,4S-OH) = N[C@H](C(=O)O)[C@H](O)[C@@H](O)c1ccc(O)cc1; Pro(3S-OH,4S-Me) = C[C@H]1CN[C@H](C(=O)O)[C@H]1O; Hyp = O=C(O)[C@@H]1C[C@@H](O)CN1
valueType: concentration at 72 h (ng/mL)

INSERT INTO measurements (molecule, valuetype, unittag, valuemeasured) VALUES
  ('CCCCCOc1ccc(-c2ccc(-c3ccc(C(=O)N[C@H]4C[C@@H](O)[C@@H](OCC[N+](C)(C)C)NC(=O)[C@@H]5[C@@H](O)[C@@H](C)CN5C(=O)[C@H]([C@@H](C)O)NC(=O)[C@H]([C@H](O)[C@@H](O)c5ccc(O)cc5)NC(=O)[C@@H]5C[C@@H](O)CN5C(=O)[C@H]([C@@H](C)O)NC4=O)cc3)cc2)cc1 [CD101] ({pTerphenylCO(4''''-OnC5H11)}-[Orn(4R-OH,5R-OCH2CH2NMe3+)]T[Hyp][hTyr(3S-OH,4S-OH)]T[Pro(3S-OH,4S-Me)]; lactam 1-C)', 'concentration at 72 h', 'ng/mL', 4000);

----------
# assayText: Pharmacokinetics of CD101 after single 30 mg/kg SC (vs IV) dose in monkeys
# Format: in vivo
# conditions: male, cynomolgus monkey, plasma; animal 9697, M; 30 mg/kg SC
Starred links: 1 amine or outer side, 2 acyl side, 3 side chain; linkers in the order of their positions; H or OH if unused. Positions of bridges follow the written chain, without caps; N, C: chain ends. Non-standard residues stand in square brackets, D forms with d. Residues, ends and D or L forms follow the SMILES beside them. *: point of attachment. Orn(4R-OH,5R-OCH2CH2NMe3+) = C[N+](C)(C)CCO[C@@H](N[*:3])[C@H](O)C[C@H](N[*:1])C(=O)[*:2]; pTerphenylCO(4''-OnC5H11) = CCCCCOc1ccc(-c2ccc(-c3ccc(C(=O)*)cc3)cc2)cc1; hTyr(3S-OH,4S-OH) = N[C@H](C(=O)O)[C@H](O)[C@@H](O)c1ccc(O)cc1; Pro(3S-OH,4S-Me) = C[C@H]1CN[C@H](C(=O)O)[C@H]1O; Hyp = O=C(O)[C@@H]1C[C@@H](O)CN1
valueType: Tmax (h)

INSERT INTO measurements (compound, unittag, valuemeasured) VALUES
  ('CCCCCOc1ccc(-c2ccc(-c3ccc(C(=O)N[C@H]4C[C@@H](O)[C@@H](OCC[N+](C)(C)C)NC(=O)[C@@H]5[C@@H](O)[C@@H](C)CN5C(=O)[C@H]([C@@H](C)O)NC(=O)[C@H]([C@H](O)[C@@H](O)c5ccc(O)cc5)NC(=O)[C@@H]5C[C@@H](O)CN5C(=O)[C@H]([C@@H](C)O)NC4=O)cc3)cc2)cc1 [CD101] ({pTerphenylCO(4''''-OnC5H11)}-[Orn(4R-OH,5R-OCH2CH2NMe3+)]T[Hyp][hTyr(3S-OH,4S-OH)]T[Pro(3S-OH,4S-Me)]; lactam 1-C)', 'h', 96);

----------
# assayText: Pharmacokinetic profile in female rats, 10 mg/kg IV and SC
# conditions: rat, in vivo, SC administration
Starred links: 1 amine or outer side, 2 acyl side, 3 side chain; linkers in the order of their positions; H or OH if unused. Positions of bridges follow the written chain, without caps; N, C: chain ends. Non-standard residues stand in square brackets, D forms with d. Residues, ends and D or L forms follow the SMILES beside them. *: point of attachment. Orn(4R-OH,5R-OCH2CH2NMe3+) = C[N+](C)(C)CCO[C@@H](N[*:3])[C@H](O)C[C@H](N[*:1])C(=O)[*:2]; pTerphenylCO(4''-OnC5H11) = CCCCCOc1ccc(-c2ccc(-c3ccc(C(=O)*)cc3)cc2)cc1; hTyr(3S-OH,4S-OH) = N[C@H](C(=O)O)[C@H](O)[C@@H](O)c1ccc(O)cc1; Pro(3S-OH,4S-Me) = C[C@H]1CN[C@H](C(=O)O)[C@H]1O; Hyp = O=C(O)[C@@H]1C[C@@H](O)CN1
valueType: Tmax

INSERT INTO assay_data (compound, valuetype, valuemeasured) VALUES
  ('CCCCCOc1ccc(-c2ccc(-c3ccc(C(=O)N[C@H]4C[C@@H](O)[C@@H](OCC[N+](C)(C)C)NC(=O)[C@@H]5[C@@H](O)[C@@H](C)CN5C(=O)[C@H]([C@@H](C)O)NC(=O)[C@H]([C@H](O)[C@@H](O)c5ccc(O)cc5)NC(=O)[C@@H]5C[C@@H](O)CN5C(=O)[C@H]([C@@H](C)O)NC4=O)cc3)cc2)cc1 [CD101] ({pTerphenylCO(4''''-OnC5H11)}-[Orn(4R-OH,5R-OCH2CH2NMe3+)]T[Hyp][hTyr(3S-OH,4S-OH)]T[Pro(3S-OH,4S-Me)]; lactam 1-C)', 'Tmax', '8 to 24 h');

----------
# assayText: Single-dose plasma pharmacokinetics in mice, IP
# Format: in vivo, mouse
# conditions: mouse, plasma; IP doses of 1, 4, 16, and 64 mg/kg; read-out: Peak (Cmax) levels
# Method: Plasma from groups of three mice per time point (1, 3, 6, 12, 24, 48, and 72-h) was collected. The plasma drug concentrations were determined by liquid chromatography-tandem mass spectrometry. A noncompartmental model was used in the pharmacokinetic analysis. Elimination half-life was calculated by nonlinear least-squares technique. The area under the concentration-time curve (AUC) was calculated by the trapezoidal rule. […]
Starred links: 1 amine or outer side, 2 acyl side, 3 side chain; linkers in the order of their positions; H or OH if unused. Positions of bridges follow the written chain, without caps; N, C: chain ends. Non-standard residues stand in square brackets, D forms with d. Residues, ends and D or L forms follow the SMILES beside them. *: point of attachment. Orn(4R-OH,5R-OCH2CH2NMe3+) = C[N+](C)(C)CCO[C@@H](N[*:3])[C@H](O)C[C@H](N[*:1])C(=O)[*:2]; pTerphenylCO(4''-OnC5H11) = CCCCCOc1ccc(-c2ccc(-c3ccc(C(=O)*)cc3)cc2)cc1; hTyr(3S-OH,4S-OH) = N[C@H](C(=O)O)[C@H](O)[C@@H](O)c1ccc(O)cc1; Pro(3S-OH,4S-Me) = C[C@H]1CN[C@H](C(=O)O)[C@H]1O; Hyp = O=C(O)[C@@H]1C[C@@H](O)CN1
valueType: Cmax

INSERT INTO measurements (molecule, valuemeasured) VALUES
  ('CCCCCOc1ccc(-c2ccc(-c3ccc(C(=O)N[C@H]4C[C@@H](O)[C@@H](OCC[N+](C)(C)C)NC(=O)[C@@H]5[C@@H](O)[C@@H](C)CN5C(=O)[C@H]([C@@H](C)O)NC(=O)[C@H]([C@H](O)[C@@H](O)c5ccc(O)cc5)NC(=O)[C@@H]5C[C@@H](O)CN5C(=O)[C@H]([C@@H](C)O)NC4=O)cc3)cc2)cc1 [CD101] ({pTerphenylCO(4''''-OnC5H11)}-[Orn(4R-OH,5R-OCH2CH2NMe3+)]T[Hyp][hTyr(3S-OH,4S-OH)]T[Pro(3S-OH,4S-Me)]; lactam 1-C)', '2600 to 76700 ng/mL');
